Assay: Crystal form stability study (influencing factor experiments)
Assay type: physicochemical
Settings: 40° C., 10 days, open container
Purity % for assorted compounds
Note: unit % is implicit; provide only the numeric part.

Previously resolved entries follow.
{"compound": "CCc1c(F)ccc2cc(O)cc(-c3nc4c5c(nc(OC[C@@]67CCCN6C[C@H](F)C7)nc5c3F)N3C[C@H]5CC[C@H](N5)[C@H]3CO4)c12 [Crystal form A]", "property": "Purity %", "numeric.result": 99.2}
{"compound": "CCc1c(F)ccc2cc(O)cc(-c3nc4c5c(nc(OC[C@@]67CCCN6C[C@H](F)C7)nc5c3F)N3C[C@H]5CC[C@H](N5)[C@H]3CO4)c12 [Crystal form B]", "property": "Purity %", "numeric.result": 99.3}
{"compound": "CCc1c(F)ccc2cc(O)cc(-c3nc4c5c(nc(OC[C@@]67CCCN6C[C@H](F)C7)nc5c3F)N3C[C@H]5CC[C@H](N5)[C@H]3CO4)c12 [Crystal form I]", "property": "Purity %", "numeric.result": 99.4}
{"compound": "CCc1c(F)ccc2cc(O)cc(-c3nc4c5c(nc(OC[C@@]67CCCN6C[C@H](F)C7)nc5c3F)N3C[C@H]5CC[C@H](N5)[C@H]3CO4)c12 [Crystal form J]", "property": "Purity %", "numeric.result": 98.8}
{"compound": "CCc1c(F)ccc2cc(O)cc(-c3nc4c5c(nc(OC[C@@]67CCCN6C[C@H](F)C7)nc5c3F)N3C[C@H]5CC[C@H](N5)[C@H]3CO4)c12 [Crystal form C]", "property": "Purity %", "numeric.result": 99.3}

# lookup: Purity % of CCc1c(F)ccc2cc(O)cc(-c3nc4c5c(nc(OC[C@@]67CCCN6C[C@H](F)C7)nc5c3F)N3C[C@H]5CC[C@H](N5)[C@H]3CO4)c12 [Crystal form K]
98.5

---

Recorded Purity % by entry
Assay: Crystal form stability study (influencing factor experiments)
Format: physicochemical
Conditions: light exposure (4500 Lux), 5 days, open container
Give your result in % as a bare value.

Examples with their reported Purity % follow.
{"compound": "CCc1c(F)ccc2cc(O)cc(-c3nc4c5c(nc(OC[C@@]67CCCN6C[C@H](F)C7)nc5c3F)N3C[C@H]5CC[C@H](N5)[C@H]3CO4)c12 [Crystal form C]", "numeric.result": 99.2}
{"compound": "CCc1c(F)ccc2cc(O)cc(-c3nc4c5c(nc(OC[C@@]67CCCN6C[C@H](F)C7)nc5c3F)N3C[C@H]5CC[C@H](N5)[C@H]3CO4)c12 [Crystal form B]", "numeric.result": 99.0}
{"compound": "CCc1c(F)ccc2cc(O)cc(-c3nc4c5c(nc(OC[C@@]67CCCN6C[C@H](F)C7)nc5c3F)N3C[C@H]5CC[C@H](N5)[C@H]3CO4)c12 [Crystal form K]", "numeric.result": 99.3}
{"compound": "CCc1c(F)ccc2cc(O)cc(-c3nc4c5c(nc(OC[C@@]67CCCN6C[C@H](F)C7)nc5c3F)N3C[C@H]5CC[C@H](N5)[C@H]3CO4)c12 [Crystal form I]", "numeric.result": 99.6}
{"compound": "CCc1c(F)ccc2cc(O)cc(-c3nc4c5c(nc(OC[C@@]67CCCN6C[C@H](F)C7)nc5c3F)N3C[C@H]5CC[C@H](N5)[C@H]3CO4)c12 [Crystal form A]", "numeric.result": 98.7}

Now consider a different compound.
So what does the record say about Purity % for CCc1c(F)ccc2cc(O)cc(-c3nc4c5c(nc(OC[C@@]67CCCN6C[C@H](F)C7)nc5c3F)N3C[C@H]5CC[C@H](N5)[C@H]3CO4)c12 [Crystal form J] ?
98.1
